Attribution: patent US8278345B2

# EXPERIMENTAL SYSTEM: UniProtKB Q16769
# TEST METHOD NOTES: Inhibitor assay for glutaminyl cyclase activity (fluorometric, H-Gln-βNA / H-Gln-AMC)
# Type: biochemical
# RUN CONDITIONS: read-out: IC50
pIC50: −log10 of the molar value.
Class label 1: pIC50 at least 6. Class label 0: pIC50 below 6.

COMPOUND	CLASS LABEL
O=C1C(O)=C(c2ccc(O)cc2)C(C2CCC=CO2)N1CCCn1ccnc1 (stereo not drawn)	label 1
CC(=O)C1=C(O)C(=O)N(c2ccc3[nH]cnc3c2)C1c1ccnc2ccccc12 (stereo not drawn)	label 0
CCC1=C(O)C(=O)N(c2ccc3[nH]cnc3c2)C1c1c(F)c(F)cc(F)c1F (stereo not drawn)	label 0
O=C1C(O)=C(c2c[nH]c3ccccc23)C(c2ccccc2O)N1CCCn1ccnc1 (stereo not drawn)	label 1
CCCCCC1C(C(C)C)=C(O)C(=O)N1CCCn1ccnc1 (stereo not drawn)	label 1

Is pIC50 for CCCC(=O)C1=C(O)C(=O)N(c2ccc3[nH]cnc3c2)C1 at or above 6?
label 0

Is pIC50 for CC(C)C1=C(O)C(=O)N(CCCn2ccnc2)C1c1ccncc1 (stereo not drawn) at or above 6?
label 0

Is pIC50 for CCC1C(c2ccccc2)=C(O)C(=O)N1CCCn1ccnc1 (stereo not drawn) at or above 6?
label 1

Is pIC50 for CC(C)C1=C(O)C(=O)N(CCCn2ccnc2)C1c1cc[nH]n1 (stereo not drawn) at or above 6?
label 0

----------
# EXPERIMENTAL SYSTEM: hQC (Homo sapiens, UniProt Q16769)
# Sequence (Q16769 29-361): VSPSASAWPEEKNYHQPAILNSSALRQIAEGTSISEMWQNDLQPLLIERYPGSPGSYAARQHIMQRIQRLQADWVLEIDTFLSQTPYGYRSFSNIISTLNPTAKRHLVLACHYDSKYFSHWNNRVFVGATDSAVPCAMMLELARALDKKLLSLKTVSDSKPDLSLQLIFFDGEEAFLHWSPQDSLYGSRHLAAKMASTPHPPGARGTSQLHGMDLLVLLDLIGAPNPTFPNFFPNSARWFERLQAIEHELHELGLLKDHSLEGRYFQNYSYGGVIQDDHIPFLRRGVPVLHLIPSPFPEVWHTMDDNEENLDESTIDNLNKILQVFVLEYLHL
# TEST METHOD NOTES: Inhibitor assay for glutaminyl cyclase activity (fluorometric, H-Gln-βNA / H-Gln-AMC)
# Format: biochemical
# RUN CONDITIONS: read-out: IC50
In this section we review reported IC50 values for a set of compounds.
Expressed in nM, but write only the number.

Field: example entries. Status: answers known.
COMPOUND	EXPERIMENTAL SYSTEM	VALUE REPORTED
O=C1C(O)=C(c2c[nH]c3ccccc23)C(c2cccc(O)c2)N1CCCn1ccnc1 (stereo not drawn)	hQC (Homo sapiens, UniProt Q16769)	400
CCCC(=O)C1=C(O)C(=O)N(c2ccc3[nH]cnc3c2)C1c1ccc(C)o1 (stereo not drawn)	hQC (Homo sapiens, UniProt Q16769)	4
O=C1C(O)=C(c2ccc(O)cc2)C(C(F)(F)F)N1CCCn1ccnc1 (stereo not drawn)	hQC (Homo sapiens, UniProt Q16769)	400

I'd like to know its IC50. The compound in question is O=C1C(O)=C(c2ccc(O)cc2)C(C2CCOC2)N1c1ccc2[nH]cnc2c1 (stereo not drawn)
5800

I'd like to know its IC50. The compound in question is CC(=O)C1=C(O)C(=O)N(c2ccc3[nH]cnc3c2)C1c1cnc2ccccc2c1 (stereo not drawn)
40

I'd like to know its IC50. The compound in question is CCC1C(c2c[nH]c3ccccc23)=C(O)C(=O)N1CCCn1ccnc1 (stereo not drawn)
400

I'd like to know its IC50. The compound in question is O=C(C1=C(O)C(=O)N(c2ccc3[nH]cnc3c2)C1c1cccc(F)c1)C1CC1 (stereo not drawn)
7690

I'd like to know its IC50. The compound in question is O=C1C(O)=C(c2ccc(O)cc2)C(c2ncc[nH]2)N1CCCn1ccnc1 (stereo not drawn)
2200

I'd like to know its IC50. The compound in question is Cc1ccc(C2C(c3ccc(O)cc3)=C(O)C(=O)N2CCCn2ccnc2)cc1 (stereo not drawn)
40
